- TARGET UNDER TEST: T1, CD71 apical domain (UniProt P02786 189-383, limits assumed)
- T1 construct: domain: Apical domain
- T1 sequence (P02786 189-383 limits assumed): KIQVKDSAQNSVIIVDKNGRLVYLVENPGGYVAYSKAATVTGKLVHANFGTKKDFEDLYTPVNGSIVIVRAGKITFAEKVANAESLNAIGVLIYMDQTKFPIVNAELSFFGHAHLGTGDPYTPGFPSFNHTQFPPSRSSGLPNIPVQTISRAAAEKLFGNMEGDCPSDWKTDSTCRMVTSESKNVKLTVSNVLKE
- ASSAY TEXT: solution ELISA
PROPERTY MEASURED: Apical domain, RLU (RLU)

P = SEQ ID NO 184 (designed binder, FN3 domain) MLPAPKNLVVSRVTEDSARLSWTAPDAAFDSFFIGYLEPQPPGEAIDLAVPGSERSYDLTGLKPGTEYSVLIHGVKGGLLSSPLSFTT
Q = SEQ ID NO 108 (designed binder, FN3 domain) MLPAPKNLVVSRVTEDSARLSWTAPDAAFDSFFIGYLEPQPPGEAIQLRVPGSERSYDLTGLKPGTEYNVTIQGVKGGFPSMPLSAIFTT
R = SEQ ID NO 129 (designed binder, FN3 domain) MLPAPKNLVVSRVTEDSARLSWTAPDAAFDSFYIAYAEPRPDGEAINLWVPGSERSYDLTGLKPGTEYSVLIHGVKGGLLSSPLDASFTT
Sort ascending by Apical domain, RLU. List the labels according to the requested ordering. P, Q, R
